molecular target: Glycogen synthase kinase-3 beta (Homo sapiens, UniProt P49841)
Sequence (P49841 whole entry): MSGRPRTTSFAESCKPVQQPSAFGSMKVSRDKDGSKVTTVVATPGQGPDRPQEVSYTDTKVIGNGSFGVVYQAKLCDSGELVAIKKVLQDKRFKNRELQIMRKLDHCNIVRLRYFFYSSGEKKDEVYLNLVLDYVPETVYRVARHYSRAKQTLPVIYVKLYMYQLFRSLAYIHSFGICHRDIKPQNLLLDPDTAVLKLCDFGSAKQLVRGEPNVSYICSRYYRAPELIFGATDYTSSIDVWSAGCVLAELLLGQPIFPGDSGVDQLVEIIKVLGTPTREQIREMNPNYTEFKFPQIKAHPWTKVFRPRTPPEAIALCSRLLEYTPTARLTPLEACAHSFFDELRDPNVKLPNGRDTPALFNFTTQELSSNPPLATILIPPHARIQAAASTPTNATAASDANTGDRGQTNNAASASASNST
pIC50: −log10 of the molar value.
Give condition met when the value for pIC50 is at least 6. Give condition not met when it is less.

Smi: COc1cc2c(CNC3CCN(S(=O)(=O)c4ccc(C)cc4)CC3)cc3c(c2cc1OC)C(=O)NC3=O
System Name: Glycogen synthase kinase-3 beta (Homo sapiens, UniProt P49841)
Assigned Category: condition not met
--
Smi: COc1cc2c(CNC3CCN(S(C)(=O)=O)CC3)cc3c(c2cc1OC)C(=O)NC3=O
System Name: Glycogen synthase kinase-3 beta (Homo sapiens, UniProt P49841)
Assigned Category: condition met
--
Smi: COc1cc2c(CNC3CCN(S(=O)(=O)c4ccc([N+](=O)[O-])cc4)CC3)cc3c(c2cc1OC)C(=O)NC3=O
System Name: Glycogen synthase kinase-3 beta (Homo sapiens, UniProt P49841)
Assigned Category: condition met

QUERY: Item COc1cc2c(CNC3CCN(S(=O)(=O)c4cccs4)CC3)cc3c(c2cc1OC)C(=O)NC3=O with pIC50 of 6 or above?
RESULT: condition met

QUERY: Item COc1ccc(S(=O)(=O)N2CCC(NCc3cc4c(c5cc(OC)c(OC)cc35)C(=O)NC4=O)CC2)cc1 with pIC50 of 6 or above?
RESULT: condition not met

QUERY: Item COc1cc2c(CNC3CCN(S(=O)(=O)c4ccc(C(F)(F)F)cc4)CC3)cc3c(c2cc1OC)C(=O)NC3=O with pIC50 of 6 or above?
RESULT: condition met

QUERY: Item COc1cc2c(CNC3CCN(S(=O)(=O)c4ccccc4[N+](=O)[O-])CC3)cc3c(c2cc1OC)C(=O)NC3=O with pIC50 of 6 or above?
RESULT: condition met
